assay: Gelation on addition of metal salts (vial inversion); assay type: physicochemical; conditions: salt 20 mM; PA 10 mg/ml (roughly 8 mM)
Non-standard residues stand in square brackets, D forms with d. No end group written: not given here. *: point of attachment. C16 alkyl = N-terminal C16 alkyl tail, CCCCCCCCCCCCCCCC*; pS = N[C@@H](COP(=O)(O)O)C(=O)O
endpoint: gelation properties, GdCl3

Worked cases, answers included:
| substance | gelation properties, GdCl3 |
| --- | --- |
| 31 ({C16 alkyl}-AAAAGGGERGDS-OH; SMILES CCCCCCCCCCCCCCCCN[C@@H](C)C(=O)N[C@@H](C)C(=O)N[C@@H](C)C(=O)N[C@@H](C)C(=O)NCC(=O)NCC(=O)NCC(=O)N[C@@H](CCC(=O)O)C(=O)N[C@@H](CCCNC(=N)N)C(=O)NCC(=O)N[C@@H](CC(=O)O)C(=O)N[C@@H](CO)C(=O)O) [compound 31] | gel |
| 29 (CCCCGGGSRGD-OH; not fully specified (N-terminus); cysteine pairing not given here) [compound 29] | gel |
| 30 ({C16 alkyl}-AAAGGEQS-OH; SMILES CCCCCCCCCCCCCCCCN[C@@H](C)C(=O)N[C@@H](C)C(=O)N[C@@H](C)C(=O)NCC(=O)NCC(=O)N[C@@H](CCC(=O)O)C(=O)N[C@@H](CCC(N)=O)C(=O)N[C@@H](CO)C(=O)O) [compound 30] | gel |
| 28 (AAAAGGG[pS]KGE-OH; not fully specified (N-terminus)) [compound 28] | gel |
| 26 (CCCCGGG[pS]RGD-OH; not fully specified (N-terminus); cysteine pairing not given here) [compound 26] | gel |
| 27 (AAAAGGG[pS]RGD-OH; not fully specified (N-terminus); printed as Alkyl-A4G3S(P)RGD-COOH) [compound 27] | gel |

Shift focus to the following entry.
## Task If you can, please state the reported gelation properties, GdCl3 value of 32 (CCCCGGGEIKVAV-OH; not fully specified (N-terminus); cysteine pairing not given here) [compound 32] .
## Result gel
